molecular target: PAC1-PAC2 complex (Homo sapiens) (UniProt O95456+Q969U7); test: Inhibition of N-terminal mKG-labeled PAC1/C-terminal mKG-labeled PAC2 (unknown origin) protein-protein interaction at 1 uM preincubated for 1 hr with protein followed by another protein addition and measured after 17 hrs by fluorescence based protein-fragment complementation assay relative to control; format: protein-complex assay
Assignment: determine reported inhibition for the given compounds.
The reply should read as a number followed by its unit.

Tell me inhibition of COc1c(C)c(OC(=O)c2ccc(Oc3cccc(C(=O)Oc4c(C)c(C)c(C(=O)Oc5c(C)c(C)c(C(=O)O)c(OC)c5C)c(OC)c4C)c3C)c(C)c2)c(C)c(C)c1C(=O)O when tested on PAC1-PAC2 complex (Homo sapiens) (UniProt O95456+Q969U7).
31%

Tell me inhibition of COc1c(C)c(OC(=O)c2c(C)c(C)c(OC[C@H](O)[C@@H](O)COc3c(C)c(C)c(C(=O)Oc4c(C)c(C)c(C(=O)O)c(OC)c4C)c(OC)c3C)c(C)c2OC)c(C)c(C)c1C(=O)O when tested on PAC1-PAC2 complex (Homo sapiens) (UniProt O95456+Q969U7).
17%

Tell me inhibition of COc1c(C)c(OC(=O)c2ccc(Oc3cccc(C(=O)Oc4c(C)c(C)c(C(=O)Oc5c(C)c(C)c(C(=O)O)c(OC)c5C)c(OC)c4C)c3)cc2)c(C)c(C)c1C(=O)O when tested on PAC1-PAC2 complex (Homo sapiens) (UniProt O95456+Q969U7).
35%

Tell me inhibition of COc1c(C)c(OC(=O)c2c(C)c(C)c(OC(=O)c3c(C)c(C(=O)Oc4c(C)c(C)c(C(=O)Oc5c(C)c(C)c(C(=O)O)c(OC)c5C)c(OC)c4C)c(OC)c(C)c3OC)c(C)c2OC)c(C)c(C)c1C(=O)O when tested on PAC1-PAC2 complex (Homo sapiens) (UniProt O95456+Q969U7).
2%

###

molecular target: PAC1-PAC2 complex (Homo sapiens) (UniProt O95456+Q969U7); assay: Inhibition of N-terminal mKG-labeled PAC1/C-terminal mKG-labeled PAC2 (unknown origin) protein-protein interaction at 10 uM preincubated for 1 hr with protein followed by another protein addition and measured after 17 hrs by fluorescence based protein-fragment complementation assay relative to control; assay type: protein-complex assay
Assignment: determine reported inhibition for the given molecules.
Your answer should be a plain number; it is taken to be in %.

Give the reported value of inhibition for this record: COCOC(=O)c1c(C)c(C)c(OC(=O)c2c(C)c(C)c(OCc3cccc(COc4c(C)c(C)c(C(=O)Oc5c(C)c(C)c(C(=O)OCOC)c(OC)c5C)c(OC)c4C)c3Br)c(C)c2OC)c(C)c1OC
6

Give the reported value of inhibition for this record: COc1c(C)c(OC(=O)c2c(C)c(C)c(OC(=O)c3c(C)c(C(=O)Oc4c(C)c(C)c(C(=O)Oc5c(C)c(C)c(C(=O)O)c(OC)c5C)c(OC)c4C)c(O)c(C)c3O)c(C)c2OC)c(C)c(C)c1C(=O)O
69

Give the reported value of inhibition for this record: COc1c(C)c(OC(=O)c2c(C)c(C)c(OC[C@H](O)[C@@H](O)COc3c(C)c(C)c(C(=O)Oc4c(C)c(C)c(C(=O)O)c(OC)c4C)c(OC)c3C)c(C)c2OC)c(C)c(C)c1C(=O)O
39

Give the reported value of inhibition for this record: COc1c(C)c(OC(=O)c2c(C)c(C)c(OC(=O)CCC(=O)Oc3c(C)c(C)c(C(=O)Oc4c(C)c(C)c(C(=O)O)c(OC)c4C)c(OC)c3C)c(C)c2OC)c(C)c(C)c1C(=O)O
28

Give the reported value of inhibition for this record: COc1c(C)c(O)c(C)c(C)c1C(=O)Oc1c(C)c(C)c(C(=O)O)c(OC)c1C
11

Give the reported value of inhibition for this record: COc1c(C)c(OC(=O)c2ccc(Oc3cccc(C(=O)Oc4c(C)c(C)c(C(=O)Oc5c(C)c(C)c(C(=O)O)c(OC)c5C)c(OC)c4C)c3C)cc2)c(C)c(C)c1C(=O)O
91

###

biological target: PAC1-PAC2 complex (Homo sapiens) (UniProt O95456+Q969U7); assay: Inhibition of N-terminal mKG-labeled PAC1/C-terminal mKG-labeled PAC2 (unknown origin) protein-protein interaction at 1 uM preincubated for 1 hr with protein followed by another protein addition and measured after 17 hrs by fluorescence based protein-fragment complementation assay relative to control; type: protein-complex assay
Respond with 1 for inhibition values of 20% and above, -1 for values below.

For this molecule, is measured inhibition 20% or higher? COCOC(=O)c1c(C)c(C)c(OC(=O)c2c(C)c(C)c(OCc3cccc(COc4c(C)c(C)c(C(=O)Oc5c(C)c(C)c(C(=O)OCOC)c(OC)c5C)c(OC)c4C)c3Br)c(C)c2OC)c(C)c1OC
-1

For this molecule, is measured inhibition 20% or higher? COc1c(C)c(OC(=O)c2c(C)c(C)c(OC[C@@H]3OC(=O)O[C@H]3COc3c(C)c(C)c(C(=O)Oc4c(C)c(C)c(C(=O)O)c(OC)c4C)c(OC)c3C)c(C)c2OC)c(C)c(C)c1C(=O)O
-1

For this molecule, is measured inhibition 20% or higher? COc1c(C)c(OC(=O)c2ccc(Oc3cccc(C(=O)Oc4c(C)c(C)c(C(=O)Oc5c(C)c(C)c(C(=O)O)c(OC)c5C)c(OC)c4C)c3C)cc2)c(C)c(C)c1C(=O)O
1

For this molecule, is measured inhibition 20% or higher? COc1c(C)c(OC(=O)c2c(C)c(C)c(OC(=O)CCC(=O)Oc3c(C)c(C)c(C(=O)Oc4c(C)c(C)c(C(=O)O)c(OC)c4C)c(OC)c3C)c(C)c2OC)c(C)c(C)c1C(=O)O
-1

For this molecule, is measured inhibition 20% or higher? COc1c(C)c(O)c(C)c(C)c1C(=O)Oc1c(C)c(C)c(C(=O)O)c(OC)c1C
-1

For this molecule, is measured inhibition 20% or higher? COc1c(C)c(OC(=O)c2c(C)c(C)c(OC(=O)c3c(C)c(C(=O)Oc4c(C)c(C)c(C(=O)Oc5c(C)c(C)c(C(=O)O)c(OC)c5C)c(OC)c4C)c(O)c(C)c3O)c(C)c2OC)c(C)c(C)c1C(=O)O
1

###

biological target: PAC1-PAC2 complex (Homo sapiens) (UniProt O95456+Q969U7); test: Inhibition of N-terminal mKG-labeled PAC1/C-terminal mKG-labeled PAC2 (unknown origin) protein-protein interaction at 1 uM preincubated for 1 hr with protein followed by another protein addition and measured after 17 hrs by fluorescence based protein-fragment complementation assay relative to control; assay type: protein-complex assay
readout-kind: inhibition (%)
Your answer should be a plain number; it is taken to be in %.

Tell me inhibition of COc1c(C)c(OC(=O)c2c(C)c(C)c(OCc3cccc(COc4c(C)c(C)c(C(=O)Oc5c(C)c(C)c(C(=O)O)c(OC)c5C)c(OC)c4C)n3)c(C)c2OC)c(C)c(C)c1C(=O)O when tested on PAC1-PAC2 complex (Homo sapiens) (UniProt O95456+Q969U7).
5

Tell me inhibition of COc1c(C)c(OC(=O)c2c(C)c(C)c(OCc3cccc(COc4c(C)c(C)c(C(=O)Oc5c(C)c(C)c(C(=O)O)c(OC)c5C)c(OC)c4C)c3Br)c(C)c2OC)c(C)c(C)c1C(=O)O when tested on PAC1-PAC2 complex (Homo sapiens) (UniProt O95456+Q969U7).
5

Tell me inhibition of COc1c(C)c(OC(=O)c2c(C)c(C)c(OC/C=C/COc3c(C)c(C)c(C(=O)Oc4c(C)c(C)c(C(=O)O)c(OC)c4C)c(OC)c3C)c(C)c2OC)c(C)c(C)c1C(=O)O when tested on PAC1-PAC2 complex (Homo sapiens) (UniProt O95456+Q969U7).
16

Tell me inhibition of COc1c(C)c(OC(=O)c2c(C)c(C)c(OC(=O)c3c(C)c(Oc4c(C)c(C)c(C(=O)Oc5c(C)c(C)c(C(=O)O)c(OC)c5C)c(OC)c4C)c(O)c(C)c3O)c(C)c2OC)c(C)c(C)c1C(=O)O when tested on PAC1-PAC2 complex (Homo sapiens) (UniProt O95456+Q969U7).
9

Tell me inhibition of COCOC(=O)c1c(C)c(C)c(OC(=O)c2c(C)c(C)c(OC(=O)c3c(C)c(C(=O)Oc4c(C)c(C)c(C(=O)Oc5c(C)c(C)c(C(=O)OCOC)c(OC)c5C)c(OC)c4C)c(OC)c(C)c3OC)c(C)c2OC)c(C)c1OC when tested on PAC1-PAC2 complex (Homo sapiens) (UniProt O95456+Q969U7).
0

###

biological target: PAC1-PAC2 complex (Homo sapiens) (UniProt O95456+Q969U7); assay: Inhibition of N-terminal mKG-labeled PAC1/C-terminal mKG-labeled PAC2 (unknown origin) protein-protein interaction at 0.1 uM preincubated for 1 hr with protein followed by another protein addition and measured after 17 hrs by fluorescence based protein-fragment complementation assay relative to control; assay type: protein-complex assay
readout-kind: inhibition (%)
Your answer should be a plain number; it is taken to be in %.

Give the reported value of inhibition for this record: COCOC(=O)c1c(C)c(C)c(OC(=O)c2c(C)c(C)c(OC(=O)c3c(C)c(C(=O)Oc4c(C)c(C)c(C(=O)Oc5c(C)c(C)c(C(=O)OCOC)c(OC)c5C)c(OC)c4C)c(OC)c(C)c3OC)c(C)c2OC)c(C)c1OC
3

Give the reported value of inhibition for this record: COc1c(C)c(OC(=O)c2c(C)c(C)c(OCc3cccc(COc4c(C)c(C)c(C(=O)Oc5c(C)c(C)c(C(=O)O)c(OC)c5C)c(OC)c4C)n3)c(C)c2OC)c(C)c(C)c1C(=O)O
9

Give the reported value of inhibition for this record: COc1c(C)c(OC(=O)c2c(C)c(C)c(OC[C@H](O)[C@@H](O)COc3c(C)c(C)c(C(=O)Oc4c(C)c(C)c(C(=O)O)c(OC)c4C)c(OC)c3C)c(C)c2OC)c(C)c(C)c1C(=O)O
5

Give the reported value of inhibition for this record: COc1c(C)c(OC(=O)c2c(C)c(C)c(OCc3cccc(COc4c(C)c(C)c(C(=O)Oc5c(C)c(C)c(C(=O)O)c(OC)c5C)c(OC)c4C)c3Br)c(C)c2OC)c(C)c(C)c1C(=O)O
3

Give the reported value of inhibition for this record: COc1c(C)c(O)c(C)c(C)c1C(=O)Oc1c(C)c(C)c(C(=O)O)c(OC)c1C
3

Give the reported value of inhibition for this record: COc1c(C)c(OC(=O)c2c(C)c(C)c(OC(=O)CCC(=O)Oc3c(C)c(C)c(C(=O)Oc4c(C)c(C)c(C(=O)O)c(OC)c4C)c(OC)c3C)c(C)c2OC)c(C)c(C)c1C(=O)O
5

Give the reported value of inhibition for this record: COc1c(C)c(OC(=O)c2ccc(Oc3cccc(C(=O)Oc4c(C)c(C)c(C(=O)Oc5c(C)c(C)c(C(=O)O)c(OC)c5C)c(OC)c4C)c3)cc2)c(C)c(C)c1C(=O)O
9

Give the reported value of inhibition for this record: COc1c(C)c(OC(=O)c2c(C)c(C)c(OC(=O)c3c(C)c(Oc4c(C)c(C)c(C(=O)Oc5c(C)c(C)c(C(=O)O)c(OC)c5C)c(OC)c4C)c(O)c(C)c3O)c(C)c2OC)c(C)c(C)c1C(=O)O
9

Give the reported value of inhibition for this record: COc1c(C)c(OC(=O)c2ccc(Oc3cccc(C(=O)Oc4c(C)c(C)c(C(=O)Oc5c(C)c(C)c(C(=O)O)c(OC)c5C)c(OC)c4C)c3C)c(C)c2)c(C)c(C)c1C(=O)O
1

Give the reported value of inhibition for this record: COc1c(C)c(OC(=O)c2c(C)c(C)c(OC/C=C/COc3c(C)c(C)c(C(=O)Oc4c(C)c(C)c(C(=O)O)c(OC)c4C)c(OC)c3C)c(C)c2OC)c(C)c(C)c1C(=O)O
5
